Reference source: ChEMBL document CHEMBL3992484

So I've got a bunch of compounds here, and I need their ΔTm values.
Tested on: Human immunodeficiency virus 1
assay.notes: Stabilization of HIV-1 RT-RNase H assessed as change in melting temperature at 20 uM by sypro-orange dye-based differential scanning fluorimetric analysis
One number for each entry, in °C.

See these solved cases before continuing.
- smiles: "CC(C)c1ccc(O)c(=O)c(O)c1"
  test.result: 2.3
- smiles: "CCOC(=O)c1cc(O)c(=O)c(O)cc1C"
  test.result: 2.4
- smiles: "CC(=O)c1cc(O)c(=O)c(O)cc1C"
  test.result: 2.9

// for each compound in input: emit ΔTm
1. COC(=O)c1cc(O)c(=O)c(O)cc1C
2. COC(=O)c1c(C)cc(O)c(=O)c(O)c1Br

## Result
1. 2.7
2. 2.48

---

assay.notes: Inhibition of HIV-1 RT-RNase H using 18-nucleotide 3'-fluorescein-labeled RNA annealed to a complementary 18-nucleotide 5'-dabsyl-labeled DNA as substrate measured after 10 mins by FRET assay
Parameters: species or system Human immunodeficiency virus 1
Assignment: determine reported pIC50 for the given compounds.
Numbers only, as −log10 of the molar value.

Consider the reported pIC50 for these compounds:
- smiles: "COC(=O)c1c(C)cc(O)c(=O)c(O)c1Br"
  pIC50: 6.89
- smiles: "CC(=O)c1cc(O)c(=O)c(O)cc1C"
  pIC50: 6.54

State recorded pIC50 for all listed compounds.
1. CCOC(=O)c1cc(O)c(=O)c(O)cc1C
2. COC(=O)c1cc(O)c(=O)c(O)cc1C

## Result
1. 6.60
2. 6.80

---

Give EC50 for every item shown.
System: Human immunodeficiency virus 1
assay.notes: Antiviral activity against HIV1 RF infected in human CEM-SS cells assessed as protection against viral-induced cytopathic effect after 7 days by XTT assay
Type: functional, cell-based
run.parameters: Human immunodeficiency virus 1, RF, 168 h
Answer format reminder: number followed by unit.

Consider the reported EC50 for these molecules:
- smiles: "CCOC(=O)c1cc(O)c(=O)c(O)cc1C"
  EC50: "5 µM"
- smiles: "CC(=O)c1cc(O)c(=O)c(O)cc1C"
  EC50: "6.9 µM"

Could I get EC50 for every one of these entries?
1. COC(=O)c1c(C)cc(O)c(=O)c(O)c1Br
2. COC(=O)c1cc(O)c(=O)c(O)cc1C

## Result
1. 2.2 µM
2. 7.5 µM
